Assay: Oral bioavailability in dog at 7 mg/kg
Format: ADME, organism-based, Canis lupus familiaris
Conditions: in vivo
Quantity Measured: bioavailability (%)
The reply should be a number in %, with the unit left off.

[in] Report measured bioavailability; entry is "Cc1cc2cc(N=C(NC#N)N[C@H]3CCCCN(CC(=O)N4CCCC4)C3=O)ccc2o1"
[out] 77

* * *

System: Canis familiaris
Test: Total clearance in dog at 8.3 mg/kg, iv
Assay type: ADME, organism-based, Canis lupus familiaris
Set-up: dose 8.3 mg/kg, route intravenous
Settings: in vivo
Quantity Measured: clearance (mL/min/kg)
The reply should be a number in mL/min/kg, with the unit left off.

[in] Report measured clearance; entry is "Cc1cc2cc(N=C(NC#N)N[C@H]3CCCCN(CC(=O)N4CCCC4)C3=O)ccc2o1"
[out] 0.12

* * *

Assay: Inhibition of trypsin
pKi: −log10 of the molar value.
Quantity Measured: pKi

[in] Report measured pKi; entry is "Cc1cc2cc(/N=C(/NC#N)N[C@H]3CCCCN(CC(=O)N4CCCC4)C3=O)ccc2o1"
[out] < 5.00

* * *

Biological target: Cytochrome P450 1A2 (Homo sapiens, UniProt P05177)
Sequence (P05177 whole entry): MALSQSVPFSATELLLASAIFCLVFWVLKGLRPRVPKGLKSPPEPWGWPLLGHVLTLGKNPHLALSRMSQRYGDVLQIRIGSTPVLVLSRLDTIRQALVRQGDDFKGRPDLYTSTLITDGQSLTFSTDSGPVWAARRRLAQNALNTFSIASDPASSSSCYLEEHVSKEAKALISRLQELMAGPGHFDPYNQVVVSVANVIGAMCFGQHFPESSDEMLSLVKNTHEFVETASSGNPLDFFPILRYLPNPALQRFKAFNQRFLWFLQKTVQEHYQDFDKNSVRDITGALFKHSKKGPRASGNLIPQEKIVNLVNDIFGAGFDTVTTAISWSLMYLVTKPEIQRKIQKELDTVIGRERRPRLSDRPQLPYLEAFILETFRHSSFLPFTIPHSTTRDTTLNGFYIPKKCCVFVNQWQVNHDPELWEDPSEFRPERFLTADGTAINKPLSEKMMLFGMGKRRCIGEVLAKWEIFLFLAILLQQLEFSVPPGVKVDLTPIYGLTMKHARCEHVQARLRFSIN
pIC50: −log10 of the molar value.
Quantity Measured: pIC50

[in] Report measured pIC50; entry is "Cc1cc2cc(N=C(NC#N)N[C@H]3CCCCN(CC(=O)N4CCCC4)C3=O)ccc2o1"
[out] < 4.40

* * *

Test: Bioavailability in monkey at 10 mg/kg, po
Type: ADME, organism-based, Macaca mulatta
Details: rhesus monkey, in vivo
Quantity Measured: bioavailability (%)
The reply should be a number in %, with the unit left off.

[in] Report measured bioavailability; entry is "Cc1cc2cc(N=C(NC#N)N[C@H]3CCCCN(CC(=O)N4CCCC4)C3=O)ccc2o1"
[out] 49

* * *

Molecular target: Cytochrome P450 2D6 (Homo sapiens, UniProt P10635)
Sequence (P10635 whole entry): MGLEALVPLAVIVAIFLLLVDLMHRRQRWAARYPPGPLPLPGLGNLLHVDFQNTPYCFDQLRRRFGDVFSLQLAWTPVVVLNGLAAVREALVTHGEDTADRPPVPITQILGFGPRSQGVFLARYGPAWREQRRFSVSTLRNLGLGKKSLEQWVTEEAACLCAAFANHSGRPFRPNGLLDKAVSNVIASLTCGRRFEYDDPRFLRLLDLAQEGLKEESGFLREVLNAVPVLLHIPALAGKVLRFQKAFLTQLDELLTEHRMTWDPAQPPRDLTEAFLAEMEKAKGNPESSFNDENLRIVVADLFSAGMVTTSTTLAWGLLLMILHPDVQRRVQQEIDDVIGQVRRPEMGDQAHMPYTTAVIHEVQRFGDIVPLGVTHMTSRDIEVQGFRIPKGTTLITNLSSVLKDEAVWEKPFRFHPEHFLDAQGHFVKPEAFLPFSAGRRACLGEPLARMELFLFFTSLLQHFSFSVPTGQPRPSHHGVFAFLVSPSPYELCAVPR
Assay: Inhibition of CYP2D6
Type: ADME
pIC50: −log10 of the molar value.
Quantity Measured: pIC50

[in] Report measured pIC50; entry is "Cc1cc2cc(N=C(NC#N)N[C@H]3CCCCN(CC(=O)N4CCCC4)C3=O)ccc2o1"
[out] < 4.40

* * *

Assay: cells
Details: Homo sapiens, TC5
pIC50: −log10 of the molar value.
Quantity Measured: pIC50

[in] Report measured pIC50; entry is "Cc1cc2cc(/N=C(/NC#N)N[C@H]3CCCCN(CC(=O)N4CCCC4)C3=O)ccc2o1"
[out] < 3.70
